Target: Gal4-hRORγ (Homo sapiens, UniProt P51449)
Construct: Encodes for a hRORγ-LBD:Gal4-DBD fusion protein
Test: Gal4-RORγ mammalian one-hybrid luciferase assay
Conditions: HEK293 cells, 18 h treatment, up to 5 μM
For each entry below, report its IC50 value.
Don't forget the unit after the number, please.

[[record]]
molecule = "C=C(C)[C@@H]1CC[C@]2(C(=O)O)CC[C@]3(C)[C@H](CC[C@@H]4[C@@]5(C)C/C(=C/c6cccc(I)c6)C(=O)C(C)(C)[C@@H]5CC[C@]43C)[C@@H]12"
experimental_target = "Gal4-hRORγ (Homo sapiens, UniProt P51449)"
result = "3.1 µM"


Parameter requested: IC50. Apply to each item below.
1. C=C(C)[C@@H]1CC[C@]2(C(=O)O)CC[C@]3(C)[C@H](CC[C@@H]4[C@@]5(C)C/C(=C/c6ccco6)C(=O)C(C)(C)[C@@H]5CC[C@]43C)[C@@H]12
2. C=C(C)[C@@H]1CC[C@]2(C(=O)O)CC[C@]3(C)[C@H](CC[C@@H]4[C@@]5(C)C/C(=C/c6ccccc6)C(=O)C(C)(C)[C@@H]5CC[C@]43C)[C@@H]12
3. C=C(C)[C@@H]1CC[C@]2(C(=O)O)CC[C@]3(C)[C@H](CC[C@@H]4[C@@]5(C)CC[C@H](O)C(C)(C)[C@@H]5CC[C@]43C)[C@@H]12 [Betulinic acid, reference compound]

Result:
0.4 µM
2.7 µM
1.2 µM

---

Would you kindly list Imax(%) at 5 μM, full-length RORγ luciferase assay for each of these compounds?
Target: full-length human RORγ (Homo sapiens, UniProt P51449)
Construct: Encodes for the full-length human RORγ; expressed in transfected cells; host or cells: HEK293
Sequence (P51449 1-518): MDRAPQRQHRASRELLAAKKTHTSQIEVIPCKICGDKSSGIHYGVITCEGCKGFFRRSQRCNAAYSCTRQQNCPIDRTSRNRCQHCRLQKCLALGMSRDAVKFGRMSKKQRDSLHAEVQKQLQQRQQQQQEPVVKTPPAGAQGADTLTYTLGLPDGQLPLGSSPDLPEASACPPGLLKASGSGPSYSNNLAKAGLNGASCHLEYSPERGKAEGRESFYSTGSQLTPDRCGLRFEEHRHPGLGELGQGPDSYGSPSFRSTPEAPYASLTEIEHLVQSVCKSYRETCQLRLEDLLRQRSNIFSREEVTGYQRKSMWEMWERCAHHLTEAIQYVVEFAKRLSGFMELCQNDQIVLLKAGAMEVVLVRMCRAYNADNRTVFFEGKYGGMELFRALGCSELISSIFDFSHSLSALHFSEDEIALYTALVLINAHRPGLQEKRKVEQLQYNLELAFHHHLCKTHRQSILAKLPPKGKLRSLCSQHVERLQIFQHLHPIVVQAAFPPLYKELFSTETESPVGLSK
Test: Full-length RORγ luciferase assay (RORE-LUC reporter)
Assay type: cell-based
Settings: HEK293 cells, 5 μM
One number for each entry, in %.

As a guide, the following entries are already answered.
[[record]]
compound = "C=C(C)[C@@H]1CC[C@]2(C(=O)OC)CC[C@]3(C)[C@H](CC[C@@H]4[C@@]5(C)C/C(=C/c6ccco6)C(=O)C(C)(C)[C@@H]5CC[C@]43C)[C@@H]12"
quantitative_readout = 0

[[record]]
compound = "C=C(C)[C@@H]1CC[C@]2(C(=O)O)CC[C@]3(C)[C@H](CC[C@@H]4[C@@]5(C)CC[C@H](O)C(C)(C)[C@@H]5CC[C@]43C)[C@@H]12 [Betulinic acid, reference compound]"
quantitative_readout = 38

[[record]]
compound = "C=C(C)[C@@H]1CC[C@]2(C(=O)O)CC[C@]3(C)[C@H](CC[C@@H]4[C@@]5(C)C/C(=C/c6cccc(I)c6)C(=O)C(C)(C)[C@@H]5CC[C@]43C)[C@@H]12"
quantitative_readout = 55

[[record]]
compound = "C=C(C)[C@@H]1CC[C@]2(C(=O)O)CC[C@]3(C)[C@H](CC[C@@H]4[C@@]5(C)C/C(=C\\c6ccccc6OC)C(=O)C(C)(C)[C@@H]5CC[C@]43C)[C@@H]12"
quantitative_readout = 24

[[record]]
compound = "C=C(C)[C@@H]1CC[C@]2(C(=O)O)CC[C@]3(C)[C@H](CC[C@@H]4[C@@]5(C)C/C(=C/c6ccco6)C(=O)C(C)(C)[C@@H]5CC[C@]43C)[C@@H]12"
quantitative_readout = 69


Alright, here's another compound for you.
Ask: Record request: Imax(%) at 5 μM, full-length RORγ luciferase assay value, item `C=C(C)[C@@H]1CC[C@]2(C(=O)O)CC[C@]3(C)[C@H](CC[C@@H]4[C@@]5(C)C/C(=C/c6ccccc6)C(=O)C(C)(C)[C@@H]5CC[C@]43C)[C@@H]12`
Result: 67
